Target: DMPK (human) (UniProt Q09013)
Sequence (Q09013 whole entry, looked up): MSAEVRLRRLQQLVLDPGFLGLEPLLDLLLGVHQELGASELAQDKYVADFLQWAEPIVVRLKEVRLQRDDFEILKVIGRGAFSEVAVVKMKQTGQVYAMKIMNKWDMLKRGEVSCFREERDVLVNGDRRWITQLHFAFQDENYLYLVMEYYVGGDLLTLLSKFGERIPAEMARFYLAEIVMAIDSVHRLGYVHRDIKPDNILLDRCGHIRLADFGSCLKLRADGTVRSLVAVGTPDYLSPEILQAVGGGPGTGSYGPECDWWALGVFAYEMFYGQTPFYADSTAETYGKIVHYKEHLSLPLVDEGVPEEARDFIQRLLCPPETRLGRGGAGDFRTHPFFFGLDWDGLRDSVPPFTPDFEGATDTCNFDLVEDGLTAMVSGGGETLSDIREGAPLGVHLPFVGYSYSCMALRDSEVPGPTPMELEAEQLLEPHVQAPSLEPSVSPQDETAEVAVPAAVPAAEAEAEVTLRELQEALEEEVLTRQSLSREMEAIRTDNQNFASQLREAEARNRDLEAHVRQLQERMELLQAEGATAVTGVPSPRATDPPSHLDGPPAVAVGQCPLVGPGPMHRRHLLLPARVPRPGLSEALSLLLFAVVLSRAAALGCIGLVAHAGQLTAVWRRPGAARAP
Assay: split-luciferase competition binding
Settings: compound 10.0 µM
PARAMETER MEASURED: inhibition (%)

Known results for molecules:
>>> print(df.to_string())
                                   molecule                target_of_assay  parameter_measured  meas_value
0  NC(=O)c1ccc(-c2nc(-c3ccccn3)c(-c3ccc4c(c3)OCO4)[nH]2)cc1  DMPK (human) (UniProt Q09013)          inhibition           4
1            N#C/C(=C\c1ccc(O)c(O)c1)C(N)=S  DMPK (human) (UniProt Q09013)          inhibition           0
2  NC(=O)c1ccc(-c2nc(-c3ccccn3)c(-c3ccc4c(c3)OCCO4)[nH]2)cc1  DMPK (human) (UniProt Q09013)          inhibition           7
3    COc1ccc(Cl)cc1NC(=O)Nc1cc(C)nc2ccccc12  DMPK (human) (UniProt Q09013)          inhibition           6
4  N#C/C(=C(/N)Sc1ccc(N)cc1)c1ccccc1C(F)(F)F  DMPK (human) (UniProt Q09013)          inhibition           0

[I] Nc1ccc(-c2cccc3c(=O)cc(N4CCOCC4)oc23)cc1
[II] CS(=O)c1ccc(-c2nc(-c3ccc(F)cc3)c(-c3ccncc3)[nH]2)cc1 (configuration not stated)
[III] Cn1cc(C2=C(c3cn(CCCSC(=N)N)c4ccccc34)C(=O)NC2=O)c2ccccc21
[IV] CCN(CC)CCCCN1c2ccccc2Oc2ccc(Cl)cc21
Prompt: Ascending by inhibition, please. Output the labels ranked as instructed.
Completion: II, I, IV, III
(II: 0%, I: 4%, IV: 7%, III: 76%)

[P] N#CC(=C(\N)Sc1ccccc1N)/C(C#N)=C(/N)Sc1ccccc1N
[Q] c1ccc(-c2n[nH]cc2-c2ccnc3ccccc23)nc1
[R] COc1cc2c(Nc3ccc(NC(=O)c4ccccc4)cc3)ncnc2cc1OCCCN1CCOCC1
Prompt: Order the records so the highest inhibition appears first and the lowest last. Output the labels ranked as instructed.
Completion: R, Q, P
(R: 9%, Q: 3%, P: 0%)

[1] Cn1cnc2c(NCc3ccccc3)nc(NCCO)nc21
[2] Cc1[nH]c(/C=C2\C(=O)Nc3ccc(S(=O)(=O)Cc4c(Cl)cccc4Cl)cc32)c(C)c1C(=O)N1CCC[C@@H]1CN1CCCC1
[3] CC(C)(C)n1nc(-c2ccc(Cl)cc2)c2c(N)ncnc21
[4] Nc1ncnc2[nH]nc(Nc3ccc(F)cc3)c12
Prompt: Ascending by inhibition, please. Output the labels ranked as instructed.
Completion: 1, 4, 2, 3

[a] COc1nccc(-c2c(-c3ccc(F)cc3)ncn2[C@H]2CC[C@H](O)CC2)n1
[b] CC(C)[C@H](CO)Nc1nc(Nc2cc(N)cc(Cl)c2)c2ncn(C(C)C)c2n1
[c] COc1cc2ncn(-c3cc(OCc4ccccc4C(F)(F)F)c(C(N)=O)s3)c2cc1OC
[d] CN(C)CCCn1cc(C2=C(c3c[nH]c4ccccc34)C(=O)NC2=O)c2ccccc21
Prompt: Ascending by inhibition, please. Output the labels ranked as instructed.
Completion: a, b, c, d
